Reported Kd values are given for each entry in this list.
target: Carbamylated human serum albumin, Hcit% 2.7 (cHSA-2) (human) (UniProt P02768); test: ITC
Kindly write the number and append the unit.

TLGLRPVPVATT [cH2-p6 peptide (synthetic)] = 200 µM

Let's switch to this binder now.
Q: Reported Kd for AHPHSDKLVPPR [cH2-p4 peptide (synthetic)] : what is it?
A: 130 µM
